assay: Occurrence of plasma and urine metabolites in volunteers after consuming lemon or orange extract; type: in vivo, human; details: human, in vivo
reported.property: Occurrence Urine LE (number of volunteers in whom metabolite was detected)
Give only the figure.

Requested field: Occurrence Urine LE (number of volunteers in whom metabolite was detected). Item: COc1ccc([C@@H]2CC(=O)c3c(O)cc(O)cc3O2)cc1O [M17, Hesperetin]
5

Now consider COc1cc([C@@H]2CC(=O)c3c(O)cc(O)cc3O2)ccc1O [M16, Homoeriodictyol] and answer again.
12

Now consider O=C1C[C@@H](c2ccc(O)cc2)Oc2cc(O)cc(O)c21 [M15, Naringenin] and answer again.
9

Now consider COc1ccc(C2CC(=O)c3c(O)cc(O)cc3O2)cc1O[C@@H]1O[C@H](C(=O)O)[C@@H](O)[C@H](O)[C@H]1O (some centres unmarked) [M8, Hesperetin 3'-O-glucuronide] and answer again.
16

Now consider O=C1C[C@@H](c2ccc(O)cc2)Oc2cc(O[C@@H]3O[C@H](C(=O)O)[C@@H](O)[C@H](O)[C@H]3O)cc(O)c21 [M3, Naringenin 7-O-glucuronide] and answer again.
16

Now consider O=C1C[C@@H](c2ccc(O)c(O)c2)Oc2cc(O)cc(O)c21 [M12, Eriodictyol] and answer again.
14

Now consider COc1ccc([C@@H]2CC(=O)c3c(O)cc(O[C@@H]4O[C@H](C(=O)O)[C@@H](O)[C@H](O)[C@H]4O)cc3O2)cc1O [M7, Hesperetin 7-O-glucuronide] and answer again.
16

Now consider COc1ccc(C2CC(=O)c3c(O)cc(O)cc3O2)cc1OS(=O)(=O)O (centres unmarked) [M14, Hesperetin 3'-O-sulfate] and answer again.
16
